Assayed target: Adenosine receptor A1 (Homo sapiens)
Test protocol: Binding affinity to human adenosine A1 receptor expressed in CHO cells assessed as enhancement of DPCPX-induced displacement of [125I]AB-MECA from receptor at 10 uM after 90 mins relative to control
Format: cell-based
Note to self: Activity under 80% means 1 (yes), ties and anything higher get 0 (no).

Examples with answers:
{"Smiles record": "O=C(Nc1cc(Nc2ccc3c(c2)CCC3)nc2ccccc12)C1CCCC1", "Group": "0 (no)"}
{"Smiles record": "O=C(Nc1cc(Nc2ccccc2)nc2ccccc12)c1ccco1", "Group": "1 (yes)"}
{"Smiles record": "O=C(Nc1cc(NC2CCCC2)nc2ccccc12)C1CCCC1", "Group": "0 (no)"}

Could you now look at the following compound, please?
Is the reported Activity for O=C(Nc1cc(Nc2ccc(Cl)c(Cl)c2)nc2ccccc12)C1CCCCC1 strictly below 80%?
0 (no)
